molecular target: RPA (RPA70/RPA32/RPA14);Rtt105 (Saccharomyces cerevisiae;Saccharomyces …, UniProt P22336;P26754;P26755;P40063 1-621;1-273;1-122;1-208, |); assay: EMSA; Rtt105 premixed 1:1; 5 mM MgCl2; stoichiometric, apparent Kd; EMSA: 25 mM Tris-Cl pH 7.5, 200 mM NaCl, 5 mM MgCl2, 5% glycerol, 0.05% Tween-20, 25 C; anisotropy/FRET: 30 mM HEPES pH 7.8, 100 mM KCl, 6% glycerol, 5 mM MgCl2, 1 mM bME, 23 C (stopped flow 25 C); conditions: protein: recombinant;recombinant; tags: ;; copies: 1;1;1;1; label: 5'-Cy5
Sequence (P22336 whole entry, chain 1 of 4): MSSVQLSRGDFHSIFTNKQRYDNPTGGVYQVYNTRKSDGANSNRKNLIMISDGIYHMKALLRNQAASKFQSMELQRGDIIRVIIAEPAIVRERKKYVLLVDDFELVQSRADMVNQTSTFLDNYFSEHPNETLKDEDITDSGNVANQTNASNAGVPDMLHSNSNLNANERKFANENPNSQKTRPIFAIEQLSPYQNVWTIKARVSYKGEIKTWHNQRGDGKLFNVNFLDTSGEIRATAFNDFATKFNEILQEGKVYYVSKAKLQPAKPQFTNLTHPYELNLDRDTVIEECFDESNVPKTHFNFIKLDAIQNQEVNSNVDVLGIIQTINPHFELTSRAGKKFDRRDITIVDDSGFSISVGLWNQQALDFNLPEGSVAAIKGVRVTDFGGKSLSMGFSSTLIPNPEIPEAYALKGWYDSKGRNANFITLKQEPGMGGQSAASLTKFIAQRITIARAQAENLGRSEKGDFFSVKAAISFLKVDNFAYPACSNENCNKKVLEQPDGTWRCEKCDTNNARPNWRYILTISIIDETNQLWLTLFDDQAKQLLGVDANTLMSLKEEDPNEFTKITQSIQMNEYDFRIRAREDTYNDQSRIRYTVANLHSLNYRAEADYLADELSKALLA
Sequence (P26754 whole entry, chain 2 of 4): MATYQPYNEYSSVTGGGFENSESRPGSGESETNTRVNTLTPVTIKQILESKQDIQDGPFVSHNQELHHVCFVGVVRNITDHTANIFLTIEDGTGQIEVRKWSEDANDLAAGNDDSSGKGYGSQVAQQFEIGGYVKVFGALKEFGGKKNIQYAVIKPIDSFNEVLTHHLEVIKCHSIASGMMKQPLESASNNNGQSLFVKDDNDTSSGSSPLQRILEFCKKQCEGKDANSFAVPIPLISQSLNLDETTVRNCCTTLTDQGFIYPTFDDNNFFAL
Sequence (P26755 whole entry, chain 3 of 4): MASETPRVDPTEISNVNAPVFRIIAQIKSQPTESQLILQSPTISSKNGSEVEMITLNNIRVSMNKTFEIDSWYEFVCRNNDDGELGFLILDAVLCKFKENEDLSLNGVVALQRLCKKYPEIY
Sequence (P40063 whole entry, chain 4 of 4): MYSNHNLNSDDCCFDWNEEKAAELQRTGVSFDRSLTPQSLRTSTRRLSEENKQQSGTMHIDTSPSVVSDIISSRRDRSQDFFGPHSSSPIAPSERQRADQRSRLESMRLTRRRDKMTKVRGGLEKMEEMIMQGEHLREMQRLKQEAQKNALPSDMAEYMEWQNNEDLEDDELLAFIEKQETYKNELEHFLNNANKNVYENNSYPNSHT
pKd: −log10 of the molar value.

{"binder": "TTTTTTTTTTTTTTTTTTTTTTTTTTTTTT (ssDNA) [5'-Cy5-(dT)30]", "pKd": 8.24}
